Assay: Acute toxicity test, oral administration to mice
Format: in vivo
Conditions: mouse, in vivo, Male mice
LD50 values by entry

The following compounds have reported results that may help.
compound	LD50
CCOC(=O)CCCCCCOc1ccc2c(c1)CCC(=O)N2 [compound 35, reference compound]	750 to 1000 mg/kg
CC1CCCCC1N(C)C(=O)CCCOc1ccc2[nH]c(=O)ccc2c1 (centres unmarked) [compound 1]	> 1000 mg/kg
O=C(CCCOc1ccc2[nH]c(=O)ccc2c1)N(c1ccccc1)C1CCCCC1 [compound 17]	> 1000 mg/kg

Ask: # LD50 lookup, item CCOC(=O)C(C)Oc1ccc2[nH]c(=O)ccc2c1 (centres unmarked) [compound 26, 6-(1-Ethoxycarbonylethoxy)carostyril, reference compound]
Result: > 1000 mg/kg

Ask: # LD50 lookup, item CC(COc1ccc2[nH]c(=O)ccc2c1)CC(=O)N(C)C1CCCCC1 (centres unmarked) [compound 9]
Result: > 1000 mg/kg

Ask: Item under review: O=C(CCCOc1ccc2c(c1)CCC(=O)N2)Nc1ccccc1 [compound 19] . Reported LD50?
Result: > 1000 mg/kg

Ask: # query: LD50 of entry CC(C)(Oc1ccc2c(c1)CCC(=O)N2)C(=O)O [compound 38, reference compound]
Result: 800 to 1000 mg/kg

Ask: Param item = CN(C(=O)CC(O)COc1ccc2[nH]c(=O)ccc2c1)C1CCCCC1 (centres unmarked) [compound 8] ; retrieve measured LD50.
Result: > 1000 mg/kg

Ask: # LD50 lookup, item CN(C(=O)CCCOc1cccc2c1CCC(=O)N2)C1CCCCC1 [compound 23]
Result: > 1000 mg/kg

Ask: So what's the measured LD50 for this one? O=C(CCCOc1ccc2[nH]c(=O)ccc2c1)NC1CCCCC1 [compound 13]
Result: > 1000 mg/kg

Ask: LD50 lookup needed for CCCNC(=O)CC(C)COc1ccc2c(c1)CCC(=O)N2 (centres unmarked) [compound 45, reference compound] , thanks.
Result: 500 to 800 mg/kg

Ask: Would you mind telling me what LD50 value was observed for C=CCN(C(=O)CCCOc1ccc2c(c1)CCC(=O)N2)C1CCCCC1 [compound 14] ?
Result: > 1000 mg/kg

Ask: Record request: LD50 value, item CCCCCOC(=O)C(C)Oc1ccc2c(c1)CCC(=O)N2 (centres unmarked) [compound 30, reference compound]
Result: > 1000 mg/kg

Ask: LD50 lookup needed for CCOC(=O)C(C)Oc1ccc2c(c1)CCC(=O)N2C (centres unmarked) [compound 27, reference compound] , thanks.
Result: 800 to 1000 mg/kg

Ask: Quick one: LD50 of COc1ccc(CCN(C)C(=O)CCCOc2ccc3[nH]c(=O)ccc3c2)cc1OC [compound 4] ?
Result: > 1000 mg/kg

Ask: Fill blank: measured LD50 of the compound O=C1CCc2cc(OCCCC(=O)OC3CCCCC3)ccc2N1 [compound 40, reference compound] is ____.
Result: 500 to 800 mg/kg

Ask: Recorded LD50 of CN(C(=O)CCCOc1ccc2[nH]c(=O)ccc2c1Cl)C1CCCCC1 [compound 6] , please.
Result: > 1000 mg/kg

* * *

System: rabbit platelet
Assay: Collagen-induced aggregation in rabbit platelets (AG-II Aggregometer)
Type: cell-based
Conditions: Oryctolagus cuniculus, Platelet; 10^-5 mole; read-out: Inhibition effect on collagen induced aggregation in rabbit platelet
reportedProperty: inhibition at 10 µM (stock) (%)
The answer is to be given in %; state only the numeric part.

Ask: Form entry - test system: rabbit platelet; read-out: inhibition at 10 µM (stock); molecule: O=C(CCCOc1ccc2[nH]c(=O)ccc2c1)N(c1ccccc1)C1CCCCC1
Result: 53.8

Ask: Please state recorded inhibition at 10 µM (stock) (tested on rabbit platelet) of CN(C(=O)CCCOc1cccc2c1CCC(=O)N2)C1CCCCC1
Result: 58.7

Ask: Param readout= inhibition at 10 µM (stock); system= rabbit platelet; entry= COc1ccc(CCN(Cc2ccccc2)C(=O)CCCOc2ccc3c(c2)CCC(=O)N3)cc1OC ; returns value.
Result: 75.8

Recorded values, source patent US4298739A.
